B1: CDC25B (parent)
chain: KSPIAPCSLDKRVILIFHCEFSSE

# Variants of: B1
# ASSAY EXPLANATION: protein stability index of a GFP-peptide fusion (GPS, HEK-293T) (PSI 1-6); higher = more stable;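 further: lentivirally expressed fusions sorted by FACS into six bins by GFP to DsRed ratio, PSI derived from sequencing read proportions per bin multiplied by bin number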
# STUDY CONDITIONS: c terminus: a fixed tail appended
The following variants are shown together with reported protein stability index values.

RESIDUE CHANGE: S22H
protein stability index: 2.09

RESIDUE CHANGE: I14T
protein stability index: 2.1

Q: Please give measured protein stability index of the following entry: E20M
Result: 2.51
